Reported self-splicing fitness (ln) values for a set of sequences
Assay: self-splicing fitness, log relative to wild type (ln ratio); higher = more splicing; Tetrahymena group I intron in knt gene, E. coli kanamycin selection, DiMSum; sequences stand for … in CUCUCU…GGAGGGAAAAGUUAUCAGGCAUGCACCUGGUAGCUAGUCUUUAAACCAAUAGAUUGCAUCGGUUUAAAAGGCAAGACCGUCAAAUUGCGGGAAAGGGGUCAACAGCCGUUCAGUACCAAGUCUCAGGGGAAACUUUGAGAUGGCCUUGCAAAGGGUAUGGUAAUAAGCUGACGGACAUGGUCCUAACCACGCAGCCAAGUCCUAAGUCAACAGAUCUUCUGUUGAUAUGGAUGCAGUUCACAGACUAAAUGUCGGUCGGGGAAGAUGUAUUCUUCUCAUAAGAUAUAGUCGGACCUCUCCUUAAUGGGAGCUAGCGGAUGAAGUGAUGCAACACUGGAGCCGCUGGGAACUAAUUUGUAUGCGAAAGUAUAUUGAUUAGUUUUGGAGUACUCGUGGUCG;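 further: selection with 25 µg/mL kanamycin versus none on LB agar overnight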
Settings: 37 °C
Would you mind answering with just the numeric figure?

Study these solved cases before continuing.
UCCCAGCAAUAUUACGCAGA = -0.0561
CUGAAGCAAUAUUACGAUCG = -0.0487
ACUGAGCAAUAUUACGAGAG = -3.34

Value of measured self-splicing fitness (ln) for the entry AUACAGCAAUAUUACGCCGG : -1.38

Value of measured self-splicing fitness (ln) for the entry UGCGAGCAAUAUUACGAUAG : -1.7

Value of measured self-splicing fitness (ln) for the entry AGGUAGCAAUAUUACGAAGU : -1.56

Value of measured self-splicing fitness (ln) for the entry UACAAGCAAUAUUACGGCUU : -2.37

Value of measured self-splicing fitness (ln) for the entry CUUUAGCAAUAUUACGGACC : -1.83

* * *

Assay: self-splicing fitness, log relative to wild type (ln ratio); higher = more splicing; Tetrahymena group I intron in knt gene, E. coli kanamycin selection, DiMSum; sequences stand for … in CUCUCU…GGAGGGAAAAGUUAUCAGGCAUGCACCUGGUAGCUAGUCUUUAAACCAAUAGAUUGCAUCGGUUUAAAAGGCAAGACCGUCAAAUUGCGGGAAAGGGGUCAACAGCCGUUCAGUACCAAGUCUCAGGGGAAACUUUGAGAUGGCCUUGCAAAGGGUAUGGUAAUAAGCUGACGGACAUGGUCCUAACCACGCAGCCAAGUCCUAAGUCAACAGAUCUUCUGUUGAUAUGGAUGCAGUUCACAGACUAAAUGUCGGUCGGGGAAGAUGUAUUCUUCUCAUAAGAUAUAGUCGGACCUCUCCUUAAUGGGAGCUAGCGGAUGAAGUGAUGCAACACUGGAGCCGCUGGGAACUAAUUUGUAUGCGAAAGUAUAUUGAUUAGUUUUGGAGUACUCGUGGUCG
Conditions: 30 °C
measured_endpoint: self-splicing fitness (ln)

Study these solved cases before continuing.
AGCAAGCAAUAUUACGGUCC = -0.25
AACGAGCAAUAUUACGUGAA = -3.48
UCAAAGCAAUAUUACGAAGC = -3.5
AUUUAGCAAUAUUACGAUGU = -1.08
AGUUAGCAAUAUUACGUGCU = -2.35

Value of measured self-splicing fitness (ln) for the entry CUAUAGCAAUAUUACGUUGA : -3.67

Value of measured self-splicing fitness (ln) for the entry ACCAAGCAAUAUUACGUAAU : -2.74

Value of measured self-splicing fitness (ln) for the entry AGAAAGCAAUAUUACGGCGG : -0.593

Value of measured self-splicing fitness (ln) for the entry UGGAAGCAAUAUUACGCGAU : -2.02

Value of measured self-splicing fitness (ln) for the entry CUUUAGCAAUAUUACGGUUU : -2.79

* * *

Experiment: self-splicing fitness, log relative to wild type (ln ratio); higher = more splicing; Tetrahymena group I intron in knt gene, E. coli kanamycin selection, DiMSum; sequences stand for … in CUCUCU…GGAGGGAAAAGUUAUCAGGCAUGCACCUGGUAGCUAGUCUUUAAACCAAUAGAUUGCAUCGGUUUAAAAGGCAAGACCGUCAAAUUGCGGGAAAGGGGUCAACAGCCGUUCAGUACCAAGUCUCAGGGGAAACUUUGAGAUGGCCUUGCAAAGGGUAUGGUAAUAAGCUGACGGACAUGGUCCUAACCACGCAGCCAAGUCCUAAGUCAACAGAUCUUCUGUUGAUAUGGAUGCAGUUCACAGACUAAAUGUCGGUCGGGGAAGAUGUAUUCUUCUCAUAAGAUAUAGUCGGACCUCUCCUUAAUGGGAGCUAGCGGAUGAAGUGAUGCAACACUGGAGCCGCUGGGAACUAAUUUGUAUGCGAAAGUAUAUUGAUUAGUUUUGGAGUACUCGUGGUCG
Details: 30 °C
measured_endpoint: self-splicing fitness (ln)
Would you mind answering with just the numeric figure?

Study these solved cases before continuing.
ACUUAGCAAUAUUACGCAAA = -3.03
GAGCAGCAAUAUUACGCGUU = -3.08
CCGUAGCAAUAUUACGCCGU = -3
AUGCAGCAAUAUUACGUUUA = -2.04

Attention now shifts to the item below.
Value of measured self-splicing fitness (ln) for the entry UAAUAGCAAUAUUACGCAAA : -2.03

* * *

Assay: self-splicing fitness, log relative to wild type (ln ratio); higher = more splicing; Tetrahymena group I intron in knt gene, E. coli kanamycin selection, DiMSum; sequences stand for … in CUCUCU…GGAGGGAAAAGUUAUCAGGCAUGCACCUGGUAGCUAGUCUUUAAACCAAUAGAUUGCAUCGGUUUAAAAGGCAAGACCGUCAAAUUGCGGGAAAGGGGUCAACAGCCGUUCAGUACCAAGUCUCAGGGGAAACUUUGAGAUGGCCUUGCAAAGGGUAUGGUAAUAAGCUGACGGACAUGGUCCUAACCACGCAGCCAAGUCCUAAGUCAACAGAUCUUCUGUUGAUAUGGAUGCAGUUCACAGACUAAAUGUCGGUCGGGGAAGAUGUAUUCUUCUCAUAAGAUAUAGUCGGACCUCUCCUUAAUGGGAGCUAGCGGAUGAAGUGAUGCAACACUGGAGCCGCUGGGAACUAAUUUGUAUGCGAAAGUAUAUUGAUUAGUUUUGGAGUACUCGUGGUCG
Settings: 30 °C
Reported self-splicing fitness (ln) values for a set of sequences
Would you mind answering with just the numeric figure?

Study these solved cases before continuing.
CACGAGCAAUAUUACGAUAA = -3.63
CUGAAGCAAUAUUACGAUAU = -3.39
UACGAGCAAUAUUACGCCCC = -2.16
UGUGAGCAAUAUUACGCAAC = -2.24
GGCUAGCAAUAUUACGGUUA = 0.156

Value of measured self-splicing fitness (ln) for the entry GCCGAGCAAUAUUACGAACC : -0.807

Value of measured self-splicing fitness (ln) for the entry CGACAGCAAUAUUACGCGGG : -2.71

Value of measured self-splicing fitness (ln) for the entry CCACAGCAAUAUUACGACGU : -3.18

Value of measured self-splicing fitness (ln) for the entry UAGAAGCAAUAUUACGGCGG : -0.497

Value of measured self-splicing fitness (ln) for the entry GGAAAGCAAUAUUACGGAAG : -4.32

Value of measured self-splicing fitness (ln) for the entry UCGGAGCAAUAUUACGCAGC : -2.31

Value of measured self-splicing fitness (ln) for the entry UUAAAGCAAUAUUACGCACG : -0.443

Value of measured self-splicing fitness (ln) for the entry CAAAAGCAAUAUUACGUAGC : -3.1

Value of measured self-splicing fitness (ln) for the entry GGUGAGCAAUAUUACGUCAC : -3.1

* * *

Experiment: self-splicing fitness, log relative to wild type (ln ratio); higher = more splicing; Tetrahymena group I intron in knt gene, E. coli kanamycin selection, DiMSum; sequences stand for … in CUCUCU…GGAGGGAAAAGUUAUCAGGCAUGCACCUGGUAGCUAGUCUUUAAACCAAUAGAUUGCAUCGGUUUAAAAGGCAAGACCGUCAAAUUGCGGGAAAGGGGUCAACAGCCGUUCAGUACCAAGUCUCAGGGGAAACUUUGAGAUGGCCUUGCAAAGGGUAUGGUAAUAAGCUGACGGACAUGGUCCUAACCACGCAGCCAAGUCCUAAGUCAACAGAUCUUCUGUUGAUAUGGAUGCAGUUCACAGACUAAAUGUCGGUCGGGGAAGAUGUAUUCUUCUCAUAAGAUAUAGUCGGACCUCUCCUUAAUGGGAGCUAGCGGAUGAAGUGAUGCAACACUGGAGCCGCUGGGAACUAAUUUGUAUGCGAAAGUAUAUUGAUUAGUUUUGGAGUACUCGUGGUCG
Details: 37 °C
measured_endpoint: self-splicing fitness (ln)
Would you mind answering with just the numeric figure?

Study these solved cases before continuing.
UUAAAGCAAUAUUACGACCU = 0.121
UCUGAGCAAUAUUACGCAGG = -1.29
AACUAGCAAUAUUACGGUAU = -0.479

Value of measured self-splicing fitness (ln) for the entry AUAGAGCAAUAUUACGUUUA : -0.629

Value of measured self-splicing fitness (ln) for the entry GGCAAGCAAUAUUACGGACG : -0.416

Value of measured self-splicing fitness (ln) for the entry ACCGAGCAAUAUUACGUACC : -2.37

Value of measured self-splicing fitness (ln) for the entry CAUCAGCAAUAUUACGUGGC : -2.72

Value of measured self-splicing fitness (ln) for the entry GCAUAGCAAUAUUACGUAAC : -1.57

Value of measured self-splicing fitness (ln) for the entry AUCUAGCAAUAUUACGACCC : 0.543

Value of measured self-splicing fitness (ln) for the entry CAAUAGCAAUAUUACGAACG : 0.24

Value of measured self-splicing fitness (ln) for the entry AACGAGCAAUAUUACGGUCA : -1.12

Value of measured self-splicing fitness (ln) for the entry CAUGAGCAAUAUUACGUCCU : -1.88

Value of measured self-splicing fitness (ln) for the entry CGACAGCAAUAUUACGGGAC : -1.71

Value of measured self-splicing fitness (ln) for the entry UUAAAGCAAUAUUACGCUGC : -2.71

Values compiled from the supplement of paper PMC7877785.
